target: recombinant human PDGF-BB (human, UniProt P01127 82-190); test: cell-based or functional assay
Sequence (P01127 82-190 limits assumed): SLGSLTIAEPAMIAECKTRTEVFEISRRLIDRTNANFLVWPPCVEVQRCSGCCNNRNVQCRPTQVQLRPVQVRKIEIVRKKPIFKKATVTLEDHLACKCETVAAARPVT
Please respond with reported hPDGF-BB IC50 (nM), hPDGF-BB-induced NIH-3T3 cell proliferation for every item in the list.

Form: binder = hBFU-3E2.2 (antibody, V domains shown) VH: EVQLVQSGAEVKKPGSSVKVSCKASGYTFTESYMYWVRQAPGQGLELIGRIDPEDGSTDYVEKFKNRVTLTADKSTSTAYMELSSLRSEDTAVYYCARFGARSYFYPMDAWGQGTTVTVSS VL: ETVLTQSPATLSLSPGERATLSCRASESVSTLMHWYQQKPGQQPRLLIYGASNLESGVPARFSGSGSGTDFTLTISSLEPEDFAVYFCQQSWNDPWTFGGGTKVEIK ; hPDGF-BB IC50 (nM), hPDGF-BB-induced NIH-3T3 cell proliferation = 0.659 nM

Form: binder = hBDI-5H1.11 (antibody, V domains shown) VH: EVQLVESGGGLVQPGGSLRLSCAFSGFSLSTFGMGVGWIRQAPGKGLEWLANIWWDDDKYYNPSLKNRLTISKDTSKNQAYLQINSLRAEDTAVYYCARISTGISSYYVMDAWGQGTLVTVSS VL: DFVLTQSPDSLAVSLGERATINCERSSGDIGDTYVSWYQQKPGQPPKNVIYGNDQRPSGVPDRFSGSGSGNSATLTISSLQAEDVAVYFCQSYDSDIDIVFGGGTKVEIK ; hPDGF-BB IC50 (nM), hPDGF-BB-induced NIH-3T3 cell proliferation = < 10 nM

Form: binder = hBDI-9E8.5 (antibody, V domains shown) VH: EVTLRESGPALVKPTQTLTLTCTFSGFSLSTYGMGVGWIRQPPGKGLEWLANIWWDDDKYYNPSLKNRLTISKDTSKNQAVLTITNMDPVDTATYYCARIESIGTTYSFDYWGQGTMVTVSS VL: NFMLTQPHSVSESPGKTVTISCERSSGDIGDSYVSWYQQRPGSSPTTVIYADDQRPSGVPDRFSGSIDSSSNSASLTISGLKTEDEADYYCQSYDINIDIVFGGGTKLTVL ; hPDGF-BB IC50 (nM), hPDGF-BB-induced NIH-3T3 cell proliferation = > 5 nM

Form: binder = hBDI-5H1.12 (antibody, V domains shown) VH: EVQLVESGGGLVQPGGSLRLSCAFSGFSLSTFGMGVGWIRQAPGKGLEWLANIWWDDDKYYNPSLKNRLTISKDTSKNQAYLQINSLRAEDTAVYYCARISTGISSYYVMDAWGQGTLVTVSS VL: DFQLTQSPSSLSASVGDRVTITCERSSGDIGDTYVSWYQQKPGKAPKNVIYGNDQRPSGVPSRFSGSGSGNSATLTISSLQPEDFATYFCQSYDSDIDIVFGQGTKVEIK ; hPDGF-BB IC50 (nM), hPDGF-BB-induced NIH-3T3 cell proliferation = < 10 nM

Form: binder = hBDI-5H1.13 (antibody, V domains shown) VH: EVTLKESGPALVKPTQTLTLTCTFSGFSLSTFGMGVGWIRQPPGKALEWLANIWWDDDKYYNPSLKNRLTISKDTSKNQAVLTITNMDPVDTATYYCARISTGISSYYVMDAWGQGTTVTVSS VL: DFQLTQSPSSLSASVGDRVTITCERSSGDIGDTYVSWYQQKPGKAPKNVIYGNDQRPSGVPSRFSGSGSGNSATLTISSLQPEDFATYFCQSYDSDIDIVFGQGTKVEIK ; hPDGF-BB IC50 (nM), hPDGF-BB-induced NIH-3T3 cell proliferation = < 10 nM

Form: binder = hBDI-9E8.9 (antibody, V domains shown) VH: EVTLRESGPALVKPTQTLTLTCTFSGFSLSTYGMGVGWIRQPPGKALEWLANIWWDDDKYYNPSLKNRLTISKDTSKNQAVLTITNMDPVDTATYYCARIESIGTTYSFDYWGQGTTVTVSS VL: DFVLTQSPDSLAVSLGERATINCERSSGDIGDSYVSWYQQKPGQPPKNVIYADDQRPSGVPDRFSGSGSGNSASLTISSLQAEDVAVYFCQSYDINIDIVFGGGTKVEIK ; hPDGF-BB IC50 (nM), hPDGF-BB-induced NIH-3T3 cell proliferation = 0.574 nM
